Origin of the recorded values: patent US20240423977A1

Reported pIC50 values follow for various molecules
Biological target: kinase IRAK4 (Homo sapiens (Human))
Assay: Inhibitory effects of compounds on kinase activity (fluorescence microfluidic mobility detection, competitive with ATP)
Format: biochemical
Details: Table 2; IRAK4 6 nM, ATP 10 μM, substrate FAM-P8 3 μM
Worth noting: pIC50 values are minus log10 of concentrations stated in mol/L.

Known pIC50 results, listed for orientation:
O=C1CCC(N2C(=O)c3ccc(N4CCN(C(=O)CN5CCC(n6cc7cc(NC(=O)c8cccc(C(F)(F)F)n8)c(OC(F)(F)F)cc7n6)CC5)CC4)cc3C2=O)C(=O)N1 (centres unmarked) [II-2] ... 7.47
COc1cc2nn(C3CC4(CCN(C(=O)C5CCN(c6cc7c(cc6F)C(=O)N([C@H]6CCC(=O)NC6=O)C7=O)CC5)CC4)C3)cc2cc1NC(=O)c1cccc(C(F)(F)F)n1 [Compound I-61] ... 7.50
COc1cc2nn(C3CC4(CCN(C5CCN(C(=O)c6ccc7c(c6)C(=O)N(C6CCC(=O)NC6=O)C7=O)CC5)CC4)C3)cc2cc1NC(=O)c1cccc(C(F)(F)F)n1 (centres unmarked) [Compound I-51] ... 8.27

Task: # input molecule: COc1cc2nn(C3CC4(CCN(C(=O)C5(O)CCN(c6ccc7c(c6)C(=O)N(C6CCC(=O)NC6=O)C7=O)CC5)CC4)C3)cc2cc1NC(=O)c1cccc(C(F)(F)F)n1 (centres unmarked) [Compound I-33] ; wanted: its pIC50
Result: 7.58

Task: # input molecule: COc1cc2nn(C3CC4(CCN(C(=O)C5CCC6(CC5)CN(c5ccc7c(c5)C(=O)N(C5CCC(=O)NC5=O)C7=O)C6)CC4)C3)cc2cc1NC(=O)c1cccc(C(F)(F)F)n1 (centres unmarked) [Compound I-26] ; wanted: its pIC50
Result: 7.52

----------
Biological target: UniProt:Q9NWZ3
Experiment: Inhibitory effects of compounds on kinase activity (fluorescence microfluidic mobility detection, competitive with ATP)
Assay type: biochemical
Settings: Table 2; IRAK4 6 nM, ATP 10 μM, substrate FAM-P8 3 μM
Reported pIC50 values follow for various compounds
Worth noting: pIC50 values are minus log10 of concentrations stated in mol/L.

Task: # input compound: COc1cc2nn(C3CCC4(CC3)CCN(C(=O)C3CCN(c5ccc6c(c5)C(=O)N(C5CCC(=O)NC5=O)C6=O)CC3)CC4)cc2cc1NC(=O)c1cccc(C(F)(F)F)n1 (centres unmarked) ; wanted: its pIC50
Result: 7.38

Task: # input compound: CC(O)(c1cc2nn(C3CC4(CCN(C(=O)C5CCN(c6ccc7c(c6)C(=O)N(C6CCC(=O)NC6=O)C7=O)CC5)CC4)C3)cc2cc1NC(=O)c1cccc(C(F)(F)F)n1)C(F)(F)F (centres unmarked) [Compound I-12F] ; wanted: its pIC50
Result: 7.24

Task: # input compound: CC(C)(O)c1cc2nn(C3CC4(CCN(C(=O)C5CCN(c6ccc7c(c6)C(=O)N([C@H]6CCC(=O)NC6=O)C7=O)CC5)CC4)C3)cc2cc1NC(=O)c1cccc(C(F)(F)F)n1 ; wanted: its pIC50
Result: 7.49

Task: # input compound: O=C1CCC(N2C(=O)c3ccc(N4CCC(C(=O)N5CCC6(CC5)CC(n5cc7cc(NC(=O)c8cccc(C(F)(F)F)n8)c(C(=O)O)cc7n5)C6)CC4)cc3C2=O)C(=O)N1 (centres unmarked) ; wanted: its pIC50
Result: 7.72

Task: # input compound: COc1cc2nn(C3CC4(CCN(C(=O)C5CCN(c6ccc7c(c6)C(=O)N(C6CCC(=O)NC6=O)C7=O)CC5)CC4)C3)cc2cc1NC(=O)c1cccc(C)n1 (centres unmarked) ; wanted: its pIC50
Result: 7.85

----------
Molecular target: IRAK4 protein in THP-1 cells (Homo sapiens (Human))
Experiment: PROTAC-induced IRAK4 protein degradation in THP-1 cells (Western Blot)
Type: cell-based
Details: concentration that degraded 50% of IRAK4, Western blotting, 24 hours after administration
Reported DC50 values follow for various compounds
Quote the value and follow it with the unit of measurement.

Known DC50 results, listed for orientation:
COc1cc2nn(C3CC4(CCN(CC(=O)N5CCN(c6ccc7c(c6)C(=O)N(C6CCC(=O)NC6=O)C7=O)CC5)CC4)C3)cc2cc1NC(=O)c1cccc(C(F)(F)F)n1 (stereo not drawn) [Compound I-2] ... 4.41 nM
COc1cc2nn(C3CC4(CCN(C(=O)C5CCN(c6ccc7c(c6)C(=O)N(C6CCC(=O)NC6=O)C7=O)CC5)CC4)C3)cc2cc1NC(=O)c1cccc(N2CCOCC2)n1 (stereo not drawn) [Compound I-41] ... 4.42 nM

Kindly consider the entry below.
Task: # input compound: COc1cc2nn(C3CC4(CCN(C(=O)C5CCN(c6ccc7c(c6)C(=O)N(C6CCC(=O)NC6=O)C7=O)CC5)CC4)C3)cc2cc1NC(=O)c1coc(N2CCOCC2)n1 (stereo not drawn) [Compound I-54] ; wanted: its DC50
Result: 6.2 nM

----------
Biological target: IRAK4 protein in THP-1 cells (Homo sapiens (Human), UniProt Q9NWZ3)
Sequence (Q9NWZ3 whole entry): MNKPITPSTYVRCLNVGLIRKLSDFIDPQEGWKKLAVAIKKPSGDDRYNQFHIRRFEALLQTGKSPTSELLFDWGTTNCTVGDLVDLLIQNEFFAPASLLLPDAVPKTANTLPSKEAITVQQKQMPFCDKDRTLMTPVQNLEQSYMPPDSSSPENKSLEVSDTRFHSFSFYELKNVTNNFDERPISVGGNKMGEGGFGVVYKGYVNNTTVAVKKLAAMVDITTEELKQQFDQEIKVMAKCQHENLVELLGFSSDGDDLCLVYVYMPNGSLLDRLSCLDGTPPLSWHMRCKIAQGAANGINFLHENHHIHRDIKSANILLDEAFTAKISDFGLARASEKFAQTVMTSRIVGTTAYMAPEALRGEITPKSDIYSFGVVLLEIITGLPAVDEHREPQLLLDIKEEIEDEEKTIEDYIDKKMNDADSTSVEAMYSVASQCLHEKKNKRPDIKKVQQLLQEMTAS
Test: PROTAC-induced IRAK4 protein degradation in THP-1 cells (Western Blot)
Format: cell-based
Details: concentration that degraded 50% of IRAK4, Western blotting, 24 hours after administration
observation type: DC50 (nM)
Express your answer in nM, writing the number without its unit.

Known DC50 results, listed for orientation:
COc1cc2nn(C3CC4(CCN(C(=O)C5CCN(c6ccc7c(c6)C(=O)N(C6CCC(=O)NC6=O)C7=O)CC5)CC4)C3)cc2cc1NC(=O)c1cnn2ccc(N3CCN(C)CC3)nc12 (centres unmarked) ... 9.79
O=C1CCC(N2C(=O)c3ccc(N4CCC(C(=O)N5CCC6(CC5)CC(n5cc7cc(NC(=O)c8cccc(C(F)(F)F)n8)c(N8CC[C@@H](O)C8)cc7n5)C6)CC4)cc3C2=O)C(=O)N1 (some centres unmarked) ... 5.07
COc1cc2nn(C3CC4(CCN(C(=O)[C@H]5CC[C@H](Nc6ccc7c(c6)C(=O)N(C6CCC(=O)NC6=O)C7=O)CC5)CC4)C3)cc2cc1NC(=O)c1cccc(C(F)(F)F)n1 (some centres unmarked) ... 2.06

Task: For the record COc1cc2nn(C3CCN(CC(=O)N4CCN(c5ccc6c(c5)CN(C5CCC(=O)NC5=O)C6=O)CC4)CC3)cc2cc1NC(=O)c1cccc(C(F)(F)F)n1 (centres unmarked) , what value of DC50 is listed for IRAK4 protein in THP-1 cells (Homo sapiens (Human), UniProt Q9NWZ3)?
Result: 2.2

----------
Target: kinase IRAK4 (Homo sapiens (Human))
Test: Inhibitory effects of compounds on kinase activity (fluorescence microfluidic mobility detection, competitive with ATP)
Type: biochemical
Details: Table 2; IRAK4 6 nM, ATP 10 μM, substrate FAM-P8 3 μM
Reported pIC50 values follow for various molecules
Worth noting: pIC50 values are minus log10 of concentrations stated in mol/L.

Known pIC50 results, listed for orientation:
Cc1cccc(C(=O)Nc2cc3cn(C4CC5(CCN(C(=O)C6CCN(c7ccc8c(c7)C(=O)N([C@@H]7CCC(=O)NC7=O)C8=O)CC6)CC5)C4)nc3cc2C(C)(C)O)n1 ... 7.64
COc1cc2nn(C3CCC4(CC3)CN(C(=O)C3CCN(c5ccc6c(c5)C(=O)N(C5CCC(=O)NC5=O)C6=O)CC3)C4)cc2cc1NC(=O)c1cccc(C(F)(F)F)n1 (centres unmarked) ... 8.09
COc1cc2nn(C3CCN(C4CCN(C(=O)c5ccc6c(c5)C(=O)N(C5CCC(=O)NC5=O)C6=O)CC4)CC3)cc2cc1NC(=O)c1cccc(C(F)(F)F)n1 (centres unmarked) ... 7.96
COc1cc2nn(C3CC4(CCN(C(=O)C5CCN(c6cc7c(cc6F)C(=O)N(C6CCC(=O)NC6=O)C7=O)CC5)CC4)C3)cc2cc1NC(=O)c1cccc(N2CCOCC2)n1 (centres unmarked) ... 7.75

Kindly consider the entry below.
Task: # input molecule: COc1cc2nn(C3CC4(CCN(C(=O)C5CCN(c6cccc7c6C(=O)N(C6CCC(=O)NC6=O)C7=O)CC5)CC4)C3)cc2cc1NC(=O)c1cccc(C(F)(F)F)n1 (centres unmarked) ; wanted: its pIC50
Result: 7.69

----------
Reported pIC50 values follow for various molecules
Biological target: kinase IRAK4 (Homo sapiens (Human), UniProt Q9NWZ3)
Sequence (Q9NWZ3 whole entry): as above
Test: Inhibitory effects of compounds on kinase activity (fluorescence microfluidic mobility detection, competitive with ATP)
Assay type: biochemical
Details: Table 2; IRAK4 6 nM, ATP 10 μM, substrate FAM-P8 3 μM
Worth noting: pIC50 values are minus log10 of concentrations stated in mol/L.

Known pIC50 results, listed for orientation:
COc1cc2nn(C3CC4(CCN(C(=O)C5CCN(c6ccc7c(c6)C(=O)N([C@@H]6CCC(=O)NC6=O)C7=O)CC5)CC4)C3)cc2cc1NC(=O)c1cccc(C(F)(F)F)n1 [Compound I-58] ... 7.45
COc1cc2nn(C3CC4(CCN(C(=O)C5CCN(c6ccc7c(c6)C(=O)N(C6CCC(=O)NC6=O)C7=O)CC5(F)F)CC4)C3)cc2cc1NC(=O)c1cccc(N2CCOCC2)n1 (stereo not drawn) [Compound I-55] ... 7.46

Kindly consider the entry below.
Task: # input molecule: COc1cc2nn(C3CC4(CCN(C(=O)[C@H]5CC[C@H](Nc6ccc7c(c6)C(=O)N(C6CCC(=O)NC6=O)C7=O)CC5)CC4)C3)cc2cc1NC(=O)c1cccc(C(F)(F)F)n1 (stereo partly drawn) [Compound I-4] ; wanted: its pIC50
Result: 7.44
